experiment: Pharmacokinetic study in mice (plasma, brain, CSF); type: in vivo, mouse; conditions: male, C57BL/6, mouse, brain, intravenous 5 mg/Kg single dose, read-out: metabolic half-life (converted)
PROPERTY_NAME: half-life (min)
One number for each entry, in min.

Form: molecule = CNc1nc(Nc2ccc(C(=O)N3CCN(C[C@H]4CC[C@H](CSC(C)(C)[C@H](NC(=O)C5(F)CC5)C(=O)N5C[C@H](O)CC5C(=O)NCc5ccc(-c6scnc6C)cc5)CC4)CC3)cc2OC)ncc1Cl (stereo partly shown) ; half-life = 220

###

Provide the recorded inhibition at 0.033 µM for the entries that follow.
system: Rab10 pThr73; test: Rab10 Thr73 dephosphorylation (immunoblot) in LRRK2^G2019S MEFs; type: cell-based; settings: Mus musculus, 33 nM/4 h treatment; read-out: pRab10 inhibited in LRRK2^G2019S MEFs

{"COMPOUND": "CNc1nc(Nc2ccc(C(=O)N3CCN(C[C@H]4CC[C@H](CSC(C)(C)[C@H](NC(=O)C5(F)CC5)C(=O)N5C[C@H](O)CC5C(=O)N[C@@H](C)c5ccc(-c6scnc6C)cc5)CC4)CC3)cc2OC)ncc1Cl (stereo partly shown)", "SYSTEM_TESTED": "Rab10 pThr73", "inhibition at 0.033 µM": "0 to 90%"}
{"COMPOUND": "CNc1nc(Nc2ccc(C(=O)N3CCN(Cc4ccc(CSC(C)(C)[C@H](NC(=O)C5(F)CC5)C(=O)N5C[C@H](O)C[C@H]5C(=O)NCc5ccc(-c6scnc6C)cc5)cc4)CC3)cc2OC)ncc1C(F)(F)F [XL01070B]", "SYSTEM_TESTED": "Rab10 pThr73", "inhibition at 0.033 µM": "0 to 70%"}
{"COMPOUND": "CNc1nc(Nc2ccc(C(=O)N3CCN(C(=O)[C@H]4CC[C@H](CSC(C)(C)[C@H](NC(=O)C5(F)CC5)C(=O)N5C[C@H](O)CC5C(=O)NCc5ccc(-c6scnc6C)cc5)CC4)CC3)cc2OC)ncc1Cl (stereo partly shown)", "SYSTEM_TESTED": "Rab10 pThr73", "inhibition at 0.033 µM": "0 to 90%"}

Moving on to the next compound.
Notebook: CNc1nc(Nc2ccc(C(=O)N3CCN(C[C@H](C)SC(C)(C)[C@H](NC(=O)C4(F)CC4)C(=O)N4C[C@H](O)C[C@H]4C(=O)NCc4ccc(-c5scnc5C)cc4)CC3)cc2OC)ncc1Cl , inhibition at 0.033 µM read as 0 to 70%

All figures here come from patent US20260001875A1.
